Sourced from the supplement of paper PMC7877785

experiment: self-splicing fitness, log relative to wild type (ln ratio); higher = more splicing; Tetrahymena group I intron in knt gene, E. coli kanamycin selection, DiMSum; sequences stand for … in CUCUCU…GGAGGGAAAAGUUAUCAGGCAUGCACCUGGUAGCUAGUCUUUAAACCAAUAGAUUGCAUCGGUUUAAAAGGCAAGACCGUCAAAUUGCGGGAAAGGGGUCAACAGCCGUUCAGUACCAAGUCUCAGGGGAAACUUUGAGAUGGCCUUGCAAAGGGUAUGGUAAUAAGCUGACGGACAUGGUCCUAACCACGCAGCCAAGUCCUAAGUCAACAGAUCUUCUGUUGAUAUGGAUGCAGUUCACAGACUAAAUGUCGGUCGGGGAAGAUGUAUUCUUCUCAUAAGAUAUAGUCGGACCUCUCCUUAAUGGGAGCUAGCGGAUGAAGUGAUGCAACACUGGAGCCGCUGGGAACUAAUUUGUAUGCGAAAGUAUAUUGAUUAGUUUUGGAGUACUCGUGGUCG; conditions: 30 °C;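 further: selection with 25 µg/mL kanamycin versus none on LB agar overnight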
Each item that follows carries a reported self-splicing fitness (ln).
Observable: self-splicing fitness (ln)

INSERT INTO measurements (sequence_code, observable, value_measured) VALUES
  ('CGUAAGCAAUAUUACGGAAA', 'self-splicing fitness (ln)', -3.62),
  ('AUUGAGCAAUAUUACGAUUG', 'self-splicing fitness (ln)', -3.62),
  ('GUUAAGCAAUAUUACGACGA', 'self-splicing fitness (ln)', -1.13),
  ('CCGCAGCAAUAUUACGCAAG', 'self-splicing fitness (ln)', -1.41),
  ('CUAAAGCAAUAUUACGUCUA', 'self-splicing fitness (ln)', -4.21),
  ('GUGAAGCAAUAUUACGCGCA', 'self-splicing fitness (ln)', -0.00454),
  ('UGACAGCAAUAUUACGACUA', 'self-splicing fitness (ln)', -0.585),
  ('CUGAAGCAAUAUUACGCCCG', 'self-splicing fitness (ln)', -0.0662),
  ('CUUCAGCAAUAUUACGUUGC', 'self-splicing fitness (ln)', -4.23),
  ('ACGCAGCAAUAUUACGAUGU', 'self-splicing fitness (ln)', -2.13),
  ('GCGAAGCAAUAUUACGUGGA', 'self-splicing fitness (ln)', -1.9),
  ('CCAUAGCAAUAUUACGCACA', 'self-splicing fitness (ln)', -3.14),
  ('UAUAAGCAAUAUUACGUCGC', 'self-splicing fitness (ln)', -3.29),
  ('UCAAAGCAAUAUUACGUAGA', 'self-splicing fitness (ln)', -1.47),
  ('CGCAAGCAAUAUUACGGGCA', 'self-splicing fitness (ln)', 0.0951),
  ('UAGGAGCAAUAUUACGACUU', 'self-splicing fitness (ln)', -0.556),
  ('GAGAAGCAAUAUUACGGGUU', 'self-splicing fitness (ln)', -1.88),
  ('GCGGAGCAAUAUUACGGGAG', 'self-splicing fitness (ln)', -2.36),
  ('UAUCAGCAAUAUUACGCAGA', 'self-splicing fitness (ln)', -1.57),
  ('GGAUAGCAAUAUUACGAUCC', 'self-splicing fitness (ln)', -1.95),
  ('ACCAAGCAAUAUUACGUUUG', 'self-splicing fitness (ln)', -4.33),
  ('CCGAAGCAAUAUUACGAUGC', 'self-splicing fitness (ln)', -4.36),
  ('GGAAAGCAAUAUUACGCUUA', 'self-splicing fitness (ln)', -0.976),
  ('AGUCAGCAAUAUUACGCUUC', 'self-splicing fitness (ln)', -2.35),
  ('AUUGAGCAAUAUUACGCUUG', 'self-splicing fitness (ln)', -2.91),
  ('GUAAAGCAAUAUUACGCAGA', 'self-splicing fitness (ln)', -2.79),
  ('UGGGAGCAAUAUUACGGACU', 'self-splicing fitness (ln)', -1.17),
  ('CGUUAGCAAUAUUACGGCAU', 'self-splicing fitness (ln)', -2.01),
  ('ACGUAGCAAUAUUACGCGCG', 'self-splicing fitness (ln)', -1.28),
  ('UCCAAGCAAUAUUACGCCUA', 'self-splicing fitness (ln)', -0.968),
  ('GUUUAGCAAUAUUACGGUAG', 'self-splicing fitness (ln)', -3.53),
  ('CAAGAGCAAUAUUACGCGGU', 'self-splicing fitness (ln)', -3.05),
  ('CUAGAGCAAUAUUACGGCUC', 'self-splicing fitness (ln)', -2.94),
  ('UUUCAGCAAUAUUACGUAAC', 'self-splicing fitness (ln)', -3.2);
